src = the supplement of paper PMC7411054

Test system: HepG2-CANX-COX4
Experiment: phenotypically active (imaging signature differs from DMSO and reproducible) at any of 0.3-9 uM (binary (1 = active, 0 = inactive)); higher = active
Conditions: treatment time: 24 h
Where a name gives a salt, the structure may show the parent alone.
Quick reference for phenotypically active among some molecules

Molecule: Nc1ncnc2c1nc(Br)n2[C@@H]1O[C@@H]2COP(=O)(O)O[C@H]2[C@H]1O [8-Bromo-cAMP, sodium salt]
Target Desc: HepG2-CANX-COX4
phenotypically active: 0
--
Molecule: NS(=O)(=O)c1cc2c(cc1Cl)N=CNS2(=O)=O [chlorothiazide]
Target Desc: HepG2-CANX-COX4
phenotypically active: 0
--
Molecule: COc1ccc2cc(CCC(C)=O)ccc2c1
Target Desc: HepG2-CANX-COX4
phenotypically active: 0
--
Molecule: C1CCN2C[C@@H]3C[C@@H](CN4CCCC[C@@H]34)[C@H]2C1 [Sparteine (-)]
Target Desc: HepG2-CANX-COX4
phenotypically active: 0
--
Molecule: CNC(=O)c1ccccc1Sc1ccc2c(/C=C/c3ccccn3)n[nH]c2c1
Target Desc: HepG2-CANX-COX4
phenotypically active: 1
--
Molecule: CN(C)CCc1c[nH]c2ccc(C[C@H]3COC(=O)N3)cc12
Target Desc: HepG2-CANX-COX4
phenotypically active: 0
--
Molecule: CC(=O)Nc1ccc(NC(=S)NC(=O)c2ccc(C(C)(C)C)cc2)cc1
Target Desc: HepG2-CANX-COX4
phenotypically active: 1
--
Molecule: CO[C@H]1C=CC=C(C)C(=O)NC2=CC(=O)C(NCCN(C)C)=C(C[C@@H](C)C[C@H](OC)[C@H](O)[C@@H](C)C=C(C)[C@@H]1OC(N)=O)C2=O [17-DMAG hydrochloride]
Target Desc: HepG2-CANX-COX4
phenotypically active: 1

---

Quick reference for phenotypically active among some compounds
System: HepG2-GM130-SQSTM1
Test: phenotypically active (imaging signature differs from DMSO and reproducible) at any of 0.3-9 uM (binary (1 = active, 0 = inactive)); higher = active
Conditions: treatment time: 24 h
Where a name gives a salt, the structure may show the parent alone.
Measurement Label: phenotypically active

Compound: O=C(O)[C@H]1O[C@@H](Oc2cc3oc(-c4ccccc4)cc(=O)c3c(O)c2O)[C@H](O)[C@@H](O)[C@@H]1O
Recorded Value: 0

Compound: Cc1nc2sccn2c(=O)c1CCN1CCC(=C(c2ccc(F)cc2)c2ccc(F)cc2)CC1
Recorded Value: 1

Compound: C[C@@H]1CN(Cc2ccc(F)cc2)[C@@H](C)CN1C(=O)c1cc2c(C(=O)C(=O)N(C)C)cn(C)c2cc1Cl [SCIO 469 hydrochloride]
Recorded Value: 0

Compound: OC[C@H]1O[C@@H](n2cnc3c(NCc4ccco4)ncnc32)[C@H](O)[C@@H]1O [Kinetin riboside]
Recorded Value: 1

Compound: CC(C)c1nc(CN(C)C(=O)N[C@H](C(=O)N[C@@H](Cc2ccccc2)C[C@H](O)[C@H](Cc2ccccc2)NC(=O)OCc2cncs2)C(C)C)cs1
Recorded Value: 1

Compound: COc1cc2c(NC3CCN(C(C)C)CC3)nc(N3CCC(F)(F)CC3)nc2cc1OCCCN1CCCC1
Recorded Value: 1

Compound: CN(C)C(=N)NC(=N)N [Metformin hydrochloride]
Recorded Value: 0

Compound: COc1ccccc1OCC(O)COC(N)=O (stereo not drawn)
Recorded Value: 0

---

Test system: A549-CANX-COX4
Experiment: phenotypically active (imaging signature differs from DMSO and reproducible) at any of 0.3-9 uM (binary (1 = active, 0 = inactive)); higher = active
Conditions: treatment time: 24 h
Where a name gives a salt, the structure may show the parent alone.
Classes used: active, inactive

Compound: COc1ncc2cc(C(=O)Nc3cc(C(=O)NCc4cccc(Cl)c4)ccc3Cl)c(=O)[nH]c2n1
Target Desc: A549-CANX-COX4
Cat: inactive
//
Compound: CC(=O)N[C@@H](CC(=O)O)C(=O)N[C@@H](CCC(=O)O)C(=O)O
Target Desc: A549-CANX-COX4
Cat: inactive
//
Compound: O=S(=O)(c1cccc2c(O)nccc12)N1CCCNCC1 [HA 1100 hydrochloride]
Target Desc: A549-CANX-COX4
Cat: active
//
Compound: CN(C)CCOC(c1ccc(Cl)cc1)c1ccccn1 (stereo unspecified)
Target Desc: A549-CANX-COX4
Cat: inactive
//
Compound: O=P(O)(O)C(O)(Cn1ccnc1)P(=O)(O)O
Target Desc: A549-CANX-COX4
Cat: inactive
//
Compound: Cc1nc2sccn2c(=O)c1CCN1CCC(=C(c2ccc(F)cc2)c2ccc(F)cc2)CC1
Target Desc: A549-CANX-COX4
Cat: inactive
//
Compound: COc1cc([C@@H]2c3cc4c(cc3[C@@H](O[C@@H]3O[C@@H]5CO[C@@H](c6cccs6)O[C@H]5[C@H](O)[C@H]3O)[C@H]3COC(=O)[C@H]23)OCO4)cc(OC)c1O [teniposide]
Target Desc: A549-CANX-COX4
Cat: active
//
Compound: COC(=O)C1=CO[C@@H](C)[C@H]2CN3CCc4c([nH]c5ccccc45)[C@@H]3C[C@H]12 [Ajmalicine hydrochloride]
Target Desc: A549-CANX-COX4
Cat: active
//
Compound: Cc1[nH]c2ccccc2c1CCNC(=O)c1ccccc1F
Target Desc: A549-CANX-COX4
Cat: inactive
//
Compound: CSc1ccc2c(c1)N(CCC1CCCCN1C)c1ccccc1S2 (stereo unspecified)
Target Desc: A549-CANX-COX4
Cat: inactive
//
Compound: COC(=O)c1ccc(N2CCN(C)CC2)c(NC(=O)c2cccc(OC)c2)c1
Target Desc: A549-CANX-COX4
Cat: inactive
//
Compound: COc1cc(N2CCOCC2)ccc1Nc1ncc(Cl)c(Nc2ccccc2NS(C)(=O)=O)n1
Target Desc: A549-CANX-COX4
Cat: active
//
Compound: COc1ccc(C[C@H](C)NC[C@@H](O)c2ccc(O)c(NC=O)c2)cc1
Target Desc: A549-CANX-COX4
Cat: inactive
//
Compound: O=c1ncccn1[C@@H]1O[C@H](CO)[C@@H](O)[C@H]1O
Target Desc: A549-CANX-COX4
Cat: inactive
//
Compound: CC(C)C(=O)SCCCCCCC(=O)Nc1nc(-c2ccccc2)cs1
Target Desc: A549-CANX-COX4
Cat: active
//
Compound: Cc1cnc(NC(=O)Nc2cc(Br)c(C)cc2OC[C@@H]2CNCCO2)cn1
Target Desc: A549-CANX-COX4
Cat: active
//
Compound: c1ccc(CC2=NCCN2)cc1
Target Desc: A549-CANX-COX4
Cat: inactive
//
Compound: O=C1CCc2cc(OCCCCc3nnnn3C3CCCCC3)ccc2N1
Target Desc: A549-CANX-COX4
Cat: inactive
//
Compound: CC(=O)OCC(=O)[C@@]12OC3(CCCC3)O[C@@H]1C[C@H]1[C@@H]3CCC4=CC(=O)C=C[C@]4(C)[C@@]3(F)[C@@H](O)C[C@@]12C [amcinonide]
Target Desc: A549-CANX-COX4
Cat: active
//
Compound: CC(=O)N1CCN(c2ccc(OC[C@H]3CO[C@](Cn4ccnc4)(c4ccc(Cl)cc4Cl)O3)cc2)CC1
Target Desc: A549-CANX-COX4
Cat: inactive
//
Compound: O=C1C=C(O)C(=O)c2ccccc21 [2-Hydroxy-[1,4]naphthoquinone]
Target Desc: A549-CANX-COX4
Cat: inactive
//
Compound: CC(=O)c1ccc(S(=O)(=O)NC(=O)NC2CCCCC2)cc1 [acetohexamide]
Target Desc: A549-CANX-COX4
Cat: inactive
//
Compound: CCCc1nc2c(C)cc(-c3nc4ccccc4n3C)cc2n1Cc1ccc(-c2ccccc2C(=O)O)cc1
Target Desc: A549-CANX-COX4
Cat: inactive
//
Compound: N#C/C(=C(/N)Sc1ccc(N)cc1)c1ccccc1C(F)(F)F
Target Desc: A549-CANX-COX4
Cat: inactive
//
Compound: COc1cc([C@@H]2c3cc4c(cc3[C@@H](O[C@@H]3O[C@@H]5CO[C@@H](C)O[C@H]5[C@H](O)[C@H]3O)[C@H]3COC(=O)[C@H]23)OCO4)cc(OC)c1O [etoposide]
Target Desc: A549-CANX-COX4
Cat: active
//
Compound: NC(=O)c1cccc(N)c1 [3-Aminobenzamide]
Target Desc: A549-CANX-COX4
Cat: inactive
//
Compound: OC[C@H]1NC[C@@H](O)[C@@H](O)[C@@H]1O [1-Deoxymannojirimycin hydrochloride]
Target Desc: A549-CANX-COX4
Cat: inactive
//
Compound: Nc1nc(Cl)nc2c1ncn2[C@@H]1O[C@H](CO)[C@@H](O)[C@@H]1F
Target Desc: A549-CANX-COX4
Cat: active
//
Compound: CC1CNCCN1S(=O)(=O)c1cccc2cnccc12 (stereo unspecified) [H-7 dihydrochloride]
Target Desc: A549-CANX-COX4
Cat: inactive
//
Compound: Cn1cnc2c(NCc3ccccc3)nc(NCCO)nc21
Target Desc: A549-CANX-COX4
Cat: inactive
//
Compound: Nc1nccc2c1ncn2[C@@H]1C=C(CO)[C@@H](O)[C@H]1O [3-Deazaneplanocin A hydrochloride]
Target Desc: A549-CANX-COX4
Cat: active
//
Compound: c1ccc2c(c1)CCCC2C1=NCCN1 (stereo unspecified) [tetrahydrozoline]
Target Desc: A549-CANX-COX4
Cat: inactive
//
Compound: CC1=Nc2ccc(Cl)cc2S(=O)(=O)N1 [diazoxide]
Target Desc: A549-CANX-COX4
Cat: inactive
//
Compound: Cc1n[nH]c(=O)[nH]c1=O
Target Desc: A549-CANX-COX4
Cat: inactive
//
Compound: Fc1ccccc1Nc1nc2nonc2nc1Nc1ccccc1F
Target Desc: A549-CANX-COX4
Cat: inactive
//
Compound: N#Cc1ccc2ncnc(NCCc3ccccc3)c2c1
Target Desc: A549-CANX-COX4
Cat: inactive
